# TARGET_OF_ASSAY: α4β1 (R&D Systems #5668-A4) (UniProt P13612)
# MEASUREMENT_DESCRIPTION: α4β1-VCAM competition ELISA
Bridge positions count the residues as written; N and C are the ends. Square brackets hold non-standard residues; d marks the D form. Bip = N[C@@H](Cc1ccc(-c2ccccc2)cc1)C(=O)O; 1Nal = N[C@@H](Cc1cccc2ccccc12)C(=O)O; 2Nal = N[C@@H](Cc1ccc2ccccc2c1)C(=O)O; NMeR = CN[C@@H](CCCNC(=N)N)C(=O)O; Tic = O=C(O)[C@@H]1Cc2ccccc2CN1; β3hE = N[C@@H](CCC(=O)O)CC(=O)O; NMeK = CN[C@@H](CCCCN)C(=O)O; Pen = CC(C)(S)[C@H](N)C(=O)O; dNMeK = CN[C@H](CCCCN)C(=O)O
Reported IC50 values for the following binders.

>  <BINDER>
Ac-[Pen][NMeR]SDTL[Pen][2Nal]E[dK]-NH2 (disulfide 1-7 (inferred)) [SEQ ID NO 210]

>  <IC50>
200 nM

$$$$
>  <BINDER>
Ac-[Pen][NMeR]SDTL[Pen][1Nal][β3hE][NMeK]-NH2 (disulfide 1-7 (inferred); also: homodimer via DIG) [SEQ ID NO 142]

>  <IC50>
> 500 nM

$$$$
>  <BINDER>
Ac-[Pen][NMeR]SDTL[Pen][2Nal][dE][dK]-NH2 (disulfide 1-7 (inferred); also: homodimer via DIG linker) [SEQ ID NO 33]

>  <IC50>
> 100 nM

$$$$
>  <BINDER>
Ac-[Pen][NMeR]SDTL[Pen][2Nal]Y[dK]-NH2 (disulfide 1-7 (inferred); also: homodimer via DIG) [SEQ ID NO 23]

>  <IC50>
> 100 nM

$$$$
>  <BINDER>
Ac-[Pen][NMeR]SDTL[Pen][Tic][β3hE]-NH2 (disulfide 1-7 (inferred)) [SEQ ID NO 154]

>  <IC50>
> 1000 nM

$$$$
>  <BINDER>
Ac-[Pen][NMeR]SDTL[Pen][2Nal][β3hE][dK]-NH2 (disulfide 1-7 (inferred); also: homodimer via DIG) [SEQ ID NO 137]

>  <IC50>
> 1000 nM

$$$$

Qu. Fill in the blank: the reported IC50 of Ac-[Pen][NMeR]SDTL[Pen][1Nal]E[dNMeK]-NH2 (disulfide 1-7 (inferred); also: homodimer via DIG linker) [SEQ ID NO 44] is ____.
Ans. > 100 nM

Qu. Fill in the blank: the reported IC50 of Ac-[Pen][NMeR]SDTL[Pen][1Nal][dE][dNMeK]-NH2 (disulfide 1-7 (inferred); also: homodimer via DIG linker) [SEQ ID NO 38] is ____.
Ans. > 100 nM

Qu. Fill in the blank: the reported IC50 of Ac-[Pen][NMeR]SDTL[Pen][1Nal]E[dNMeK]-NH2 (disulfide 1-7; SMILES CC(=O)N[C@@H]1C(=O)N(C)[C@@H](CCCNC(=N)N)C(=O)N[C@@H](CO)C(=O)N[C@@H](CC(=O)O)C(=O)N[C@@H]([C@@H](C)O)C(=O)N[C@@H](CC(C)C)C(=O)N[C@H](C(=O)N[C@@H](Cc2cccc3ccccc23)C(=O)N[C@@H](CCC(=O)O)C(=O)N(C)[C@H](CCCCN)C(N)=O)C(C)(C)SSC1(C)C) [SEQ ID NO 18] is ____.
Ans. > 500 nM

Qu. Fill in the blank: the reported IC50 of Ac-[Pen][NMeR]SDTL[Pen][2Nal]E[dK]-NH2 (disulfide 1-7 (inferred); also: homodimer via DIG) [SEQ ID NO 212] is ____.
Ans. 70 nM

Qu. Fill in the blank: the reported IC50 of Ac-[Pen][NMeR]SDTL[Pen][1Nal]E[dK]-NH2 (disulfide 1-7 (inferred); also: homodimer via DIG) [SEQ ID NO 24] is ____.
Ans. > 100 nM

Qu. Fill in the blank: the reported IC50 of Ac-[Pen][NMeR]SDTL[Pen][2Nal]E[dNMeK]-NH2 (disulfide 1-7 (inferred); also: homodimer via DIG linker) [SEQ ID NO 41] is ____.
Ans. > 100 nM

Qu. Fill in the blank: the reported IC50 of Ac-[Pen][NMeR]SDTL[Pen][2Nal][b‑H‑E]-NH2 (disulfide 1-7 (inferred)) [SEQ ID NO 155] is ____.
Ans. > 1000 nM

Qu. Fill in the blank: the reported IC50 of Ac-[Pen][NMeR]SDTL[Pen][Bip][b‑H‑E][NMeK]-NH2 (disulfide 1-7 (inferred); also: homodimer via DIG) [SEQ ID NO 150] is ____.
Ans. > 1000 nM

Qu. Fill in the blank: the reported IC50 of Ac-[Pen][NMeR]SDTL[Pen][Bip]E[dK]-NH2 (disulfide 1-7 (inferred); also: homodimer via DIG) [SEQ ID NO 134] is ____.
Ans. > 100 nM

Qu. Fill in the blank: the reported IC50 of Ac-[Pen][NMeR]SDTL[Pen][1Nal][dE][dK]-NH2 (disulfide 1-7 (inferred); also: homodimer via DIG linker) [SEQ ID NO 32] is ____.
Ans. > 100 nM
